system_under_test: plasma purified human complement protein C3 (human) (UniProt P01024)
Sequence (P01024 23-667, chain 1 of 2): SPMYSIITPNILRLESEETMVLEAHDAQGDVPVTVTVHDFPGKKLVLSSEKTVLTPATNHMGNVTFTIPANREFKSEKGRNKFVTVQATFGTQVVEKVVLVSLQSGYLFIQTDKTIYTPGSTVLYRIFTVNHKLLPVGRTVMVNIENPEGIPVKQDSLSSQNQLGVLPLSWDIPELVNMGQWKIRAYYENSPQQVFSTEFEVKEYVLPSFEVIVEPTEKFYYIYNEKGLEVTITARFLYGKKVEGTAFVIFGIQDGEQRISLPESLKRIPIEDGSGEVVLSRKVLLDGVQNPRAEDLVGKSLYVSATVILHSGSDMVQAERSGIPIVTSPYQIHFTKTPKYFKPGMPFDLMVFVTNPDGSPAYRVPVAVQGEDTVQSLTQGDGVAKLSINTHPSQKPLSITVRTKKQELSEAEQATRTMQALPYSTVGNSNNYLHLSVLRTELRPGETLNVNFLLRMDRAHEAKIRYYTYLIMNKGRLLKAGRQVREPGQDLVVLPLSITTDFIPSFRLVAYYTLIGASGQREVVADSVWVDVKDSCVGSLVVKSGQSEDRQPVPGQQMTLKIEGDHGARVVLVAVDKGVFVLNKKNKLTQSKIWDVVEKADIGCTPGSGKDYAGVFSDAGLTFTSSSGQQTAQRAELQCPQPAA
Sequence (P01024 672-1663, chain 2 of 2): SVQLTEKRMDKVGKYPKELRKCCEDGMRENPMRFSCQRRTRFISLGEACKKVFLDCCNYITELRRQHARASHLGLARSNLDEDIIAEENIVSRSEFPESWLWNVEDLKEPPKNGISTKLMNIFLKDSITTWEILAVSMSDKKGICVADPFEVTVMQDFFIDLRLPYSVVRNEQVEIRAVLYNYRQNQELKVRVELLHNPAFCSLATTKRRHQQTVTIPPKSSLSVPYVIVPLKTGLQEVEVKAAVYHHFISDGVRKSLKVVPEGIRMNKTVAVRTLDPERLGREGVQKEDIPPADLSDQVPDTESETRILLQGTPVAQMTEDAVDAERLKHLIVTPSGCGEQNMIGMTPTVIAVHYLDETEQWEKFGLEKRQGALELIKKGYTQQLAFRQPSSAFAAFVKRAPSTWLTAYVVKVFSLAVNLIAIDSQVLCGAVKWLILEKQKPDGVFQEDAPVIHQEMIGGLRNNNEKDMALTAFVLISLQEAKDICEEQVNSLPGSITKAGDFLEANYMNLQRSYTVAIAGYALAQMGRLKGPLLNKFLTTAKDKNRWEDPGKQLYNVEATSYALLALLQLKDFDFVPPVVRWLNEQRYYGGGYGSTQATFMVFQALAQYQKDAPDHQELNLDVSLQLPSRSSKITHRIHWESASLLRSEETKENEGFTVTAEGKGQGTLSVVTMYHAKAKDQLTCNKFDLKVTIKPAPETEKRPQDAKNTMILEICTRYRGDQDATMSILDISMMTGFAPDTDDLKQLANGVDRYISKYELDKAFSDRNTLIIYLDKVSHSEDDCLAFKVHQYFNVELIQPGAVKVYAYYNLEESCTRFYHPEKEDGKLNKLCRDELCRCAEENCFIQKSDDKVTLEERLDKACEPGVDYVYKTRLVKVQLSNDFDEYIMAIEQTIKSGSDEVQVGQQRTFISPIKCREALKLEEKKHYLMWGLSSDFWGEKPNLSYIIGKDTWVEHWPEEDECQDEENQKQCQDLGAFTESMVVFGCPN
protocol: cell-based or functional assay
Listing of recorded EC50 of hC3 cleavage by entry.
Field: numeric (µM). Do not append units.

binder	EC50 of hC3 cleavage / µM
MTSP-1 Q38K/I41S/D60bV/ins97aV/F97D/T98P/F99L/M117T/C122S/Q145E/Q175L/Q192G (enzyme) VVGGTDADEGEWPWQVSLHALGKGHSCGASLISPNWLVSAAHCYIDVRGFRYSDPTQWTAFLGLHDQSQRSAPGVQERRLKRIISHPFFNDDVPLDYDIALLELEKPAEYSSTVRPISLPDASHVFPAGKAIWVTGWGHTEYGGTGALILQKGEIRVINQTTCENLLPQLITPRMMCVGFLSGGVDSCGGDSGGPLSSVEADGRIFQAGVVSWGDGCAQRNKPGVYTRLPLFRDWIKENTGV	0.0118

// switching to the query binder
Measured EC50 of hC3 cleavage of MTSP-1 K86R/F97T/ins97aE/T98G/F99L/K110R/C122S/K134R/K157R/Q175L/Q192E/K224R/K239R (enzyme) VVGGTDADEGEWPWQVSLHALGQGHICGASLISPNWLVSAAHCYIDDRGFRYSDPTQWTAFLGLHDQSQRSAPGVQERRLRRIISHPFFNDTEGLDYDIALLELERPAEYSSMVRPISLPDASHVFPAGRAIWVTGWGHTQYGGTGALILQRGEIRVINQTTCENLLPQLITPRMMCVGFLSGGVDSCEGDSGGPLSSVEADGRIFQAGVVSWGDGCAQRNRPGVYTRLPLFRDWIRENTGV : 0.253
